Experiment: Cmax in healthy human at 20 mg, po
Settings: in vivo
readout.type: Cmax
Provide the measurement as a number trailed by its unit.

The compound CC(C)c1nc(N(C)S(C)(=O)=O)nc(-c2ccc(F)cc2)c1/C=C/[C@@H](O)C[C@@H](O)CC(=O)[O-].CC(C)c1nc(N(C)S(C)(=O)=O)nc(-c2ccc(F)cc2)c1/C=C/[C@@H](O)C[C@@H](O)CC(=O)[O-].[Ca+2] [ROSUVASTATIN CALCIUM] showed Cmax equal to 6 nM

---

Tested on: BCRP
Assay: Efflux ratio of apparent permeability from basolateral to apical over apical to basolateral side of MDCK cells overexpressing BCRP at 2 uM after 60 to 120 mins
Format: ADME, cell-based, Canis lupus familiaris
Conditions: dog
readout.type: efflux ratio at 2 µM
Enter the number alone.

>  <line.notation>
COc1cc2nc(N3CCN(C(=O)c4ccco4)CC3)nc(N)c2cc1OC

>  <readout.type>
efflux ratio at 2 µM

>  <readout.value>
34.5

$$$$

The molecule `CC(C)c1nc(N(C)S(C)(=O)=O)nc(-c2ccc(F)cc2)c1/C=C/[C@@H](O)C[C@@H](O)CC(=O)[O-].CC(C)c1nc(N(C)S(C)(=O)=O)nc(-c2ccc(F)cc2)c1/C=C/[C@@H](O)C[C@@H](O)CC(=O)[O-].[Ca+2]` showed efflux ratio at 2 µM equal to 5.8

---

System: BCRP
Test: Apparent permeability from basolateral to apical side of MDCK cells overexpressing BCRP at 2 uM after 60 to 120 mins
Format: ADME, cell-based, Canis lupus familiaris
Settings: dog
readout.type: Papp B→A at 2 µM (×10⁻⁶ cm/s)
Return type: number; implicit unit ×10⁻⁶ cm/s.

>  <compound>
COc1cc2nc(N3CCN(C(=O)c4ccco4)CC3)nc(N)c2cc1OC [PRAZOSIN]

>  <readout.value>
45.1

$$$$

The compound CC(C)c1nc(N(C)S(C)(=O)=O)nc(-c2ccc(F)cc2)c1/C=C/[C@@H](O)C[C@@H](O)CC(=O)[O-].CC(C)c1nc(N(C)S(C)(=O)=O)nc(-c2ccc(F)cc2)c1/C=C/[C@@H](O)C[C@@H](O)CC(=O)[O-].[Ca+2] [ROSUVASTATIN CALCIUM] showed Papp B→A at 2 µM equal to 1.63

---

Assay: Efflux ratio of apparent permeability from basolateral to apical over apical to basolateral side of MDCK cells at 2 uM after 60 to 120 mins
Assay type: ADME, cell-based, Canis lupus familiaris
Settings: dog
readout.type: efflux ratio at 2 µM

>  <line.notation>
CC(C)c1nc(N(C)S(C)(=O)=O)nc(-c2ccc(F)cc2)c1/C=C/[C@@H](O)C[C@@H](O)CC(=O)[O-].CC(C)c1nc(N(C)S(C)(=O)=O)nc(-c2ccc(F)cc2)c1/C=C/[C@@H](O)C[C@@H](O)CC(=O)[O-].[Ca+2]

>  <readout.value>
1.1

$$$$

The molecule `COc1cc2nc(N3CCN(C(=O)c4ccco4)CC3)nc(N)c2cc1OC` showed efflux ratio at 2 µM equal to 3.1

---

Test system: BCRP
Test: Apparent permeability from apical to basolateral side of MDCK cells overexpressing BCRP at 2 uM after 60 to 120 mins
Format: ADME, cell-based, Canis lupus familiaris
Details: dog
Each entry below carries its recorded Papp A→B at 2 µM.
Return type: number; implicit unit ×10⁻⁶ cm/s.

>  <molecule>
CC(C)c1nc(N(C)S(C)(=O)=O)nc(-c2ccc(F)cc2)c1/C=C/[C@@H](O)C[C@@H](O)CC(=O)[O-].CC(C)c1nc(N(C)S(C)(=O)=O)nc(-c2ccc(F)cc2)c1/C=C/[C@@H](O)C[C@@H](O)CC(=O)[O-].[Ca+2] [ROSUVASTATIN CALCIUM]

>  <Papp A→B at 2 µM (×10⁻⁶ cm/s)>
0.28

$$$$

We next turn to a different molecule, shown below.
The molecule COc1cc2nc(N3CCN(C(=O)c4ccco4)CC3)nc(N)c2cc1OC [PRAZOSIN] showed Papp A→B at 2 µM equal to 1.31
